assay: Hematology assays in cynomolgus monkeys (Example 45)
Format: in vivo
protocol.conditions: day 71; escalating dose regimen
measured.metric: MCV (fL)

- ISIS 416850: MOE gapmer, nucleobases 1275 to 1318 of SEQ ID NO: 1 (Table 8) (antisense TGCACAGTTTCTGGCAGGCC; MOE gapmer, wing and gap sizes not given here): 80
- ISIS 416864: MOE gapmer, nucleobases 1275 to 1318 of SEQ ID NO: 1 (Table 8) (antisense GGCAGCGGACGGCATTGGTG; MOE gapmer, wing and gap sizes not given here): 79
- ISIS 416838: MOE gapmer, nucleobases 1018 to 1042 of SEQ ID NO: 1 (Table 6) (antisense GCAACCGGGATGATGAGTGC; MOE gapmer, wing and gap sizes not given here): 80
- ISIS 416858: MOE gapmer, nucleobases 1275 to 1318 of SEQ ID NO: 1 (Table 8) (antisense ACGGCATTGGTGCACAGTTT; MOE gapmer, wing and gap sizes not given here): 75
- ISIS 417002: MOE gapmer, nucleobases 1275 to 1318 of SEQ ID NO: 1 (Table 8) (antisense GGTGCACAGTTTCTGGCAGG; MOE gapmer, wing and gap sizes not given here): 78

---

# hemoglobin per entry
assay: Hematology assays in cynomolgus monkeys (Example 45)
Format: in vivo
protocol.conditions: day −5; escalating dose regimen
measured.metric: hemoglobin (g/dL)

• ISIS 416864: MOE gapmer, nucleobases 1275 to 1318 of SEQ ID NO: 1 (Table 8) (antisense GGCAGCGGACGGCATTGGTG; MOE gapmer, wing and gap sizes not given here) = 13.0
• ISIS 416850: MOE gapmer, nucleobases 1275 to 1318 of SEQ ID NO: 1 (Table 8) (antisense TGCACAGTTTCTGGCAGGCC; MOE gapmer, wing and gap sizes not given here) = 12.7

---

assay: Hematology assays in cynomolgus monkeys (Example 45)
Assay type: in vivo
protocol.conditions: day 29; escalating dose regimen
# WBC count per entry
measured.metric: WBC count (µL⁻¹)

* ISIS 416864: MOE gapmer, nucleobases 1275 to 1318 of SEQ ID NO: 1 (Table 8) (antisense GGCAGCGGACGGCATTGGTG; MOE gapmer, wing and gap sizes not given here) | 10000
* ISIS 417002: MOE gapmer, nucleobases 1275 to 1318 of SEQ ID NO: 1 (Table 8) (antisense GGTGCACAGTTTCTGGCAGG; MOE gapmer, wing and gap sizes not given here) | 10000
* ISIS 416858: MOE gapmer, nucleobases 1275 to 1318 of SEQ ID NO: 1 (Table 8) (antisense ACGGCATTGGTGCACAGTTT; MOE gapmer, wing and gap sizes not given here) | 12000
* ISIS 416838: MOE gapmer, nucleobases 1018 to 1042 of SEQ ID NO: 1 (Table 6) (antisense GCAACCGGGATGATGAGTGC; MOE gapmer, wing and gap sizes not given here) | 11000
* ISIS 416850: MOE gapmer, nucleobases 1275 to 1318 of SEQ ID NO: 1 (Table 8) (antisense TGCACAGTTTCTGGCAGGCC; MOE gapmer, wing and gap sizes not given here) | 11000

---

Test system: Factor 11 protein
assay: Factor 11 protein in monkey plasma by sandwich ELISA (Example 45)
Assay type: in vivo, cynomolgus monkeys
protocol.conditions: day 78; escalating dose regimen; plasma ELISA
measured.metric: Inhibition of Factor 11 protein relative to the PBS control (%)

- ISIS 416864: MOE gapmer, nucleobases 1275 to 1318 of SEQ ID NO: 1 (Table 8) (antisense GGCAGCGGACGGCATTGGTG; MOE gapmer, wing and gap sizes not given here): 9
- ISIS 416858: MOE gapmer, nucleobases 1275 to 1318 of SEQ ID NO: 1 (Table 8) (antisense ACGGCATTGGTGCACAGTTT; MOE gapmer, wing and gap sizes not given here): 73
- ISIS 417002: MOE gapmer, nucleobases 1275 to 1318 of SEQ ID NO: 1 (Table 8) (antisense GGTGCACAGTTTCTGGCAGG; MOE gapmer, wing and gap sizes not given here): 22
- ISIS 416838: MOE gapmer, nucleobases 1018 to 1042 of SEQ ID NO: 1 (Table 6) (antisense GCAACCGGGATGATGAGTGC; MOE gapmer, wing and gap sizes not given here): 10
- ISIS 416850: MOE gapmer, nucleobases 1275 to 1318 of SEQ ID NO: 1 (Table 8) (antisense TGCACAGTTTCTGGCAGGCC; MOE gapmer, wing and gap sizes not given here): 63

Sourced from patent US20230263822A1
